# Subject of test: Nonstructural protein 3 (Zika virus) (UniProt A0A024AXB9)
# Sequence (A0A024AXB9 as listed by the source): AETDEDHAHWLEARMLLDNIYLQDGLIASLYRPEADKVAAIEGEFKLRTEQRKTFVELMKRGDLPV
# Assay notes: Competitive inhibition of C-terminal His6-tagged linked Zika virus NS2B-NS3 protease domain expressed in Escherichia coli Bl21(DE3) using Bz-Nle-Lys-Lys-Arg-AMC as substrate after 30 mins by Cornish-Bowden plot analysis
The source made the active and inactive calls. The rule behind the calls is not given here. Positions of bridges follow the written chain, without caps; N, C: chain ends. Non-standard residues stand in square brackets, D forms with d. Residues, ends and D or L forms follow the SMILES beside them. NMeY = CN[C@@H](Cc1ccc(O)cc1)C(=O)O; Sar = CNCC(=O)O
Property name: inhibition

CC[C@H](C)[C@@H]1NC(=O)CN(C)C(=O)[C@H](Cc2ccc(O)cc2)NC(=O)CSC[C@@H](C(N)=O)NC(=O)[C@@H]2CCCN2C(=O)[C@H]([C@@H](C)CC)NC(=O)[C@H](Cc2ccc(OC)cc2)N(C)C(=O)[C@H](Cc2ccc(OC)cc2)N(C)C(=O)[C@H](CC(N)=O)NC(=O)[C@H](Cc2ccc(O)cc2)NC(=O)[C@H](CCCCN)NC(=O)[C@H](C)NC1=O ({CH2CO}-Y[Sar]IAKYN[NMeY](Me)[NMeY](Me)IPC-NH2; thioether N-12)    inactive
CC[C@H](C)[C@@H]1NC(=O)[C@H](CC(N)=O)NC(=O)[C@H](C(C)C)NC(=O)[C@H](CC(C)C)NC(=O)[C@H]([C@@H](C)O)NC(=O)[C@H](CC(N)=O)NC(=O)[C@H](Cc2ccc(OC)cc2)N(C)C(=O)[C@H]([C@@H](C)CC)NC(=O)[C@H](CCCCN)NC(=O)[C@H](Cc2c[nH]c3ccccc23)NC(=O)[C@H](Cc2ccc(O)cc2)NC(=O)CSC[C@@H](C(N)=O)NC1=O ({CH2CO}-YWKI[NMeY](Me)NTLVNIC-NH2; thioether N-12)    inactive
